Attribution: BigSolDB 2.1

measurement-parameters: in acetone, 308.18 K
endpoint: solubility (mole fraction)
Lab note: jot the number down without any unit.

Consider the compound O=C(O)Cn1cnnn1 and give its measured solubility (mole fraction). 0.136

###

measurement-parameters: in methanol, 323.19 K
endpoint: solubility (mole fraction)
// print number alone

Record request: solubility (mole fraction) value, item O=C(O)Cn1cnnn1 0.383

###

measurement-parameters: in water, 283.17 K
endpoint: solubility (mole fraction)
Form: value (number only, do not type unit).

So what's the measured solubility (mole fraction) for this one? O=C(O)Cn1cnnn1 0.00729

###

measurement-parameters: in n-butyl acetate, 303.18 K
endpoint: solubility (mole fraction)
Answer with a number only.

Which solubility (mole fraction) is reported for this compound? O=C(O)Cn1cnnn1 0.00647

###

measurement-parameters: in acetone, 293.32 K
endpoint: solubility (mole fraction)
The response must contain the number and no unit.

If you can, please state the reported solubility (mole fraction) value of O=C(O)Cn1cnnn1 . 0.105

###

measurement-parameters: in ethyl acetate, 288.27 K
endpoint: solubility (mole fraction)
Enter the number alone.

For the compound O=C(O)Cn1cnnn1 , what solubility (mole fraction) is on record? 0.0121

###

measurement-parameters: in ethyl acetate, 313.26 K
endpoint: solubility (mole fraction)
Give the figure by itself; no unit, no explanation.

Requested read-out: solubility (mole fraction). Entry: O=C(O)Cn1cnnn1 0.0218

###

measurement-parameters: in ethyl acetate, 323.21 K
endpoint: solubility (mole fraction)
In your answer, state the number alone without any accompanying words.

Recorded solubility (mole fraction) for O=C(O)Cn1cnnn1 , please? 0.0281

###

measurement-parameters: in isopropanol, 318.24 K
endpoint: solubility (mole fraction)
Please give only the number in your answer, with no unit.

What value of solubility (mole fraction) has been recorded for this entry: O=C(O)Cn1cnnn1 0.119

###

measurement-parameters: in acetone, 313.26 K
endpoint: solubility (mole fraction)
Reply: number alone, nothing else.

Which solubility (mole fraction) is reported for this molecule? O=C(O)Cn1cnnn1 0.149

###

measurement-parameters: in ethyl acetate, 298.19 K
endpoint: solubility (mole fraction)
Form field (numeric): enter value without unit.

Query (compound): O=C(O)Cn1cnnn1 ; field requested: solubility (mole fraction) 0.0154

###

measurement-parameters: in acetone, 323.23 K
endpoint: solubility (mole fraction)
# answer = number (no unit)

If you can, please state the reported solubility (mole fraction) value of O=C(O)Cn1cnnn1 . 0.175

###

measurement-parameters: in isopropanol, 303.2 K
endpoint: solubility (mole fraction)
// no unit string in output, number only

What value of measured solubility (mole fraction) is listed for O=C(O)Cn1cnnn1 ? 0.063

###

measurement-parameters: in water, 298.24 K
endpoint: solubility (mole fraction)
Answer as a number with no unit attached.

// lookup solubility (mole fraction) for O=C(O)Cn1cnnn1 0.0234

###

measurement-parameters: in isopropanol, 288.17 K
endpoint: solubility (mole fraction)

Requested read-out: solubility (mole fraction). Entry: O=C(O)Cn1cnnn1 0.0282

###

measurement-parameters: in ethyl acetate, 303.31 K
endpoint: solubility (mole fraction)
The reply should be a number, written without any unit.

Given O=C(O)Cn1cnnn1 , state its recorded solubility (mole fraction). 0.0173

###

measurement-parameters: in isopropanol, 298.26 K
endpoint: solubility (mole fraction)
// keep it numeric: no unit symbol after the value

Any idea what its solubility (mole fraction) is? The molecule is O=C(O)Cn1cnnn1 0.0491

###

measurement-parameters: in ethyl acetate, 308.22 K
endpoint: solubility (mole fraction)
Hey, just send me the number, nothing else.

Any idea what solubility (mole fraction) was measured for O=C(O)Cn1cnnn1 ? 0.0193

###

measurement-parameters: in n-propanol, 288.27 K
endpoint: solubility (mole fraction)
Reply briefly: the number, and no unit.

# lookup: solubility (mole fraction) of O=C(O)Cn1cnnn1 0.0312

###

measurement-parameters: in n-butyl acetate, 323.28 K
endpoint: solubility (mole fraction)
Keep the answer to the number alone.

Fill blank: measured solubility (mole fraction) of the compound O=C(O)Cn1cnnn1 is ____. 0.0133

###

measurement-parameters: in n-propanol, 298.23 K
endpoint: solubility (mole fraction)
Please reply with the number alone, leaving off any unit.

Quick one: solubility (mole fraction) of O=C(O)Cn1cnnn1 ? 0.0464

###

measurement-parameters: in methanol, 293.29 K
endpoint: solubility (mole fraction)
// response body must contain only the number

Using the record for O=C(O)Cn1cnnn1 , report its solubility (mole fraction). 0.155

###

measurement-parameters: in n-propanol, 293.21 K
endpoint: solubility (mole fraction)
Note: the reply should be a number with no unit written.

Entry O=C(O)Cn1cnnn1 has what solubility (mole fraction)? 0.0386

###

measurement-parameters: in ethanol, 283.27 K
endpoint: solubility (mole fraction)
Number only, please.

Any idea what its solubility (mole fraction) is? The compound is O=C(O)Cn1cnnn1 0.0517

###

measurement-parameters: in water, 308.3 K
endpoint: solubility (mole fraction)

GET /values?readout=solubility (mole fraction)&item= O=C(O)Cn1cnnn1 0.0549

###

measurement-parameters: in n-propanol, 323.32 K
endpoint: solubility (mole fraction)
Answer using only a numeral; do not append any unit.

Which measured solubility (mole fraction) value corresponds to O=C(O)Cn1cnnn1 ? 0.135

###

measurement-parameters: in water, 313.17 K
endpoint: solubility (mole fraction)
Please give the numeric answer without any surrounding text.

Data request, read-out solubility (mole fraction), for O=C(O)Cn1cnnn1 0.0826

###

measurement-parameters: in methanol, 318.22 K
endpoint: solubility (mole fraction)
Write the value as a bare number.

Which solubility (mole fraction) is listed for O=C(O)Cn1cnnn1 ? 0.326

###

measurement-parameters: in water, 303.19 K
endpoint: solubility (mole fraction)
Note: the reply should be a number with no unit written.

// returns reported solubility (mole fraction) for input O=C(O)Cn1cnnn1 0.0348

###

measurement-parameters: in methanol, 313.34 K
endpoint: solubility (mole fraction)
Number only, no unit.

Recorded solubility (mole fraction) of O=C(O)Cn1cnnn1 , please. 0.276

###

measurement-parameters: in ethanol, 288.17 K
endpoint: solubility (mole fraction)
The reply should be a number, written without any unit.

May I ask what solubility (mole fraction) has been recorded for O=C(O)Cn1cnnn1 ? 0.0621

###

measurement-parameters: in n-propanol, 303.29 K
endpoint: solubility (mole fraction)
Just the number, please.

Which solubility (mole fraction) reading was recorded for the molecule O=C(O)Cn1cnnn1 ? 0.0557
